Molecular target: hGABAA α1β3γ2 (Homo sapiens, UniProt P14867+P18507+P28472)
Sequence (P14867 28-456): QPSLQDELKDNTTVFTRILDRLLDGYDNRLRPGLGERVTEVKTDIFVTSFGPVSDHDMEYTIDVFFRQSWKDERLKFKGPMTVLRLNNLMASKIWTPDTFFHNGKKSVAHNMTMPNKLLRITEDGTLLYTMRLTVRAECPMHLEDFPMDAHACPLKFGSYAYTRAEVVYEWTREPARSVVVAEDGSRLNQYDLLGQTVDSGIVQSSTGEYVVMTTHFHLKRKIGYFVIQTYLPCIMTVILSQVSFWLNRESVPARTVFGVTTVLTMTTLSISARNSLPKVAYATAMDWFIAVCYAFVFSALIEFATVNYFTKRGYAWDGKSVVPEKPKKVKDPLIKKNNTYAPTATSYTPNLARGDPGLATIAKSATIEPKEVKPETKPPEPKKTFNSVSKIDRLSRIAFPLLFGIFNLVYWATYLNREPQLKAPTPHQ
Sequence (P28472 26-473): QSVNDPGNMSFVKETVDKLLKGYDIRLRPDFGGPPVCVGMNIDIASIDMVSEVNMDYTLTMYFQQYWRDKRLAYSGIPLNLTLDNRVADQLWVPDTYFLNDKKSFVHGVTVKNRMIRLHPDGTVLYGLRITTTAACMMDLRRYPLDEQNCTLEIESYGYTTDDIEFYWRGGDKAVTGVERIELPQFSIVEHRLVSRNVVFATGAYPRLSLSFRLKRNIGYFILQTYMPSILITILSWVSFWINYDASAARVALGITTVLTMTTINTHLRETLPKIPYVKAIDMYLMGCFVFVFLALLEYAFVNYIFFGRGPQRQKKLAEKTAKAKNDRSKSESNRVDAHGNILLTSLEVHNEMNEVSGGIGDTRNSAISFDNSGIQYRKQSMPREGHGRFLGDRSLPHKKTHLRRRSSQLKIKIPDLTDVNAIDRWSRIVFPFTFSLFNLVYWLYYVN
Sequence (P18507 40-475): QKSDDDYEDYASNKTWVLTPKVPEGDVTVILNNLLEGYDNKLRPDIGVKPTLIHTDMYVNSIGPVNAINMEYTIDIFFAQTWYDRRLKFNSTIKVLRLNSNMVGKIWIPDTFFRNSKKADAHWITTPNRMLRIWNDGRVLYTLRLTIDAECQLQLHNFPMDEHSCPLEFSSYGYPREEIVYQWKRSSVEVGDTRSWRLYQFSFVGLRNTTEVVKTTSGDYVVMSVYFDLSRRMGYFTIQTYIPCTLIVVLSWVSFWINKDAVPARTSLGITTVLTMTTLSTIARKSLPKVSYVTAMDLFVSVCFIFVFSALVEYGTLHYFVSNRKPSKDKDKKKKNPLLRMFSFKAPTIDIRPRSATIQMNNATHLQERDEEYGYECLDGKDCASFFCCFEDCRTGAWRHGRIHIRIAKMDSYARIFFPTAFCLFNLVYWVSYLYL
Experiment: hGABAA α1β3γ2 IonFlux HT Agonist Assay
Assay type: cell-based
Details: read-out: Normalized Percentage Activation Mean
PROPERTY_MEASURED: activation at 300 µM (%)

{"COMPOUND": "CCCN(CCNC)C(=O)Cc1c(-c2ccc(Cl)cc2)nc2ccc(Cl)cn12", "PROPERTY_MEASURED": "activation at 300 µM", "UNIT_DESCRIPTOR": "%", "ENDPOINT_RESULT": 8.78}
{"COMPOUND": "CN(C)CCN(C)C(=O)CC1c2nccnc2C(=O)N1c1ccc(Cl)cn1 (stereo not drawn)", "PROPERTY_MEASURED": "activation at 300 µM", "UNIT_DESCRIPTOR": "%", "ENDPOINT_RESULT": 2.19}
{"COMPOUND": "CCCN(CCNC)C(=O)Cc1c(-c2ccc(C)cc2)nc2ccc(C)cn12", "PROPERTY_MEASURED": "activation at 300 µM", "UNIT_DESCRIPTOR": "%", "ENDPOINT_RESULT": 3.63}
{"COMPOUND": "CCN(CCNC)C(=O)CC1c2nccnc2C(=O)N1c1ccc(Cl)cn1 (stereo not drawn)", "PROPERTY_MEASURED": "activation at 300 µM", "UNIT_DESCRIPTOR": "%", "ENDPOINT_RESULT": 2.7}
{"COMPOUND": "CNCCN(C)C(=O)Cc1c(-c2ccc(C)cc2)nc2ccc(C)cn12", "PROPERTY_MEASURED": "activation at 300 µM", "UNIT_DESCRIPTOR": "%", "ENDPOINT_RESULT": 7.15}
{"COMPOUND": "CCN(CCN(C)C)C(=O)OC1c2nccnc2C(=O)N1c1ccc(Cl)cn1 (stereo not drawn)", "PROPERTY_MEASURED": "activation at 300 µM", "UNIT_DESCRIPTOR": "%", "ENDPOINT_RESULT": 5.85}

###

Target: hGABAA α1β3γ2 (Homo sapiens, UniProt P14867+P18507+P28472)
Assay: hGABAA α1β3γ2 IonFlux HT Agonist Assay
Assay type: cell-based
Design: dose or concentration left out as unconfirmed
Details: read-out: Normalized Percentage Activation Mean
Documented activation across a set of compounds

{"COMPOUND": "CN(C)CCN(C)C(=O)CC1c2nccnc2C(=O)N1c1ccc(Cl)cn1 (centres unmarked)", "activation [%]": 2.08}
{"COMPOUND": "CCCN(CCNC)C(=O)Cc1c(-c2ccc(C)cc2)nc2ccc(C)cn12", "activation [%]": 3.48}
{"COMPOUND": "CCN(CCN(C)C)C(=O)OC1c2nccnc2C(=O)N1c1ccc(Cl)cn1 (centres unmarked)", "activation [%]": 4.45}
{"COMPOUND": "CNCCN(C)C(=O)Cc1c(-c2ccc(C)cc2)nc2ccc(C)cn12", "activation [%]": 4.98}
{"COMPOUND": "CCCN(CCNC)C(=O)Cc1c(-c2ccc(Cl)cc2)nc2ccc(Cl)cn12", "activation [%]": 3.53}

###

# Mean Maximal Effect (% of Control) per entry
Target: hGABAA α2β3γ2 (Homo sapiens, UniProt P18507+P28472+P47869)
Sequence (P47869 29-451): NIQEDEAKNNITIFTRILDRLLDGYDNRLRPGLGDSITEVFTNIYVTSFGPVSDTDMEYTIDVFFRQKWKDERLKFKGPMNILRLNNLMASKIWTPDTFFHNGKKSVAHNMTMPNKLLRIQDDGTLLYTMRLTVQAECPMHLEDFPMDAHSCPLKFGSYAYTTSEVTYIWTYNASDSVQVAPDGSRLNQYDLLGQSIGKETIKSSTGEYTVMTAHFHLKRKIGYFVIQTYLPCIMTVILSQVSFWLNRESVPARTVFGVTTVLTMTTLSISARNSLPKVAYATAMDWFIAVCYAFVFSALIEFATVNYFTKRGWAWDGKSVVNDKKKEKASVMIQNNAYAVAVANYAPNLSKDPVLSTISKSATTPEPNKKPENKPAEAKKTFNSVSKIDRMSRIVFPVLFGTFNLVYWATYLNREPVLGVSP
Sequence (P28472 26-473): as the sequence (P28472 26-473) above
Sequence (P18507 40-475): as the sequence (P18507 40-475) above
Experiment: hGABAA IonFlux HT PAM Assay, α2β3γ2
Format: cell-based
Details: normalized to baseline peak current induced by EC20 GABA (0.8 μM) for 2 seconds
From the text: Ligand-gated ion channels targeted were hGABAA α1β3γ2 and hGABAA α2β3γ2. Electrophysiological assays conducted to profile nine (9) compounds for activities on the on channel targets listed above for Positive Allosteric Modulator (PAM) activities using the IonFlux HT electrophysiological platform. The parameters measured are described in the Data Analysis section. […] All data were first exported to an Excel compatible data file and then analyzed using Graph Pad Prism software.
PROPERTY_MEASURED: Mean Maximal Effect (% of Control)

{"COMPOUND": "O=C(O)C1=CCNCC1 [Isoguvacine]", "ENDPOINT_RESULT": "95 % of Control"}
{"COMPOUND": "CCCN(CCNC)C(=O)Cc1c(-c2ccc(C)cc2)nc2ccc(C)cn12 [Compound 2]", "ENDPOINT_RESULT": "248 % of Control"}
{"COMPOUND": "Cc1ccc(-c2nc3ccc(C)cn3c2CC(=O)N(C)C)cc1 [Zolpidem]", "ENDPOINT_RESULT": "304 % of Control"}
{"COMPOUND": "CNCCN(C)C(=O)Cc1c(-c2ccc(C)cc2)nc2ccc(C)cn12 [Compound 1]", "ENDPOINT_RESULT": "181 % of Control"}
{"COMPOUND": "CCN(CCN(C)C)C(=O)OC1c2nccnc2C(=O)N1c1ccc(Cl)cn1 (stereo not drawn) [Compound 4]", "ENDPOINT_RESULT": "126 % of Control"}
{"COMPOUND": "CN1CCN(C(=O)O[C@H]2c3nccnc3C(=O)N2c2ccc(Cl)cn2)CC1 [Eszopiclone]", "ENDPOINT_RESULT": "213 % of Control"}
{"COMPOUND": "CCN(CCNC)C(=O)CC1c2nccnc2C(=O)N1c1ccc(Cl)cn1 (stereo not drawn) [Compound 5]", "ENDPOINT_RESULT": "126 % of Control"}
{"COMPOUND": "CN(C)CCN(C)C(=O)CC1c2nccnc2C(=O)N1c1ccc(Cl)cn1 (stereo not drawn) [Compound 6]", "ENDPOINT_RESULT": "122 % of Control"}
{"COMPOUND": "CCCN(CCNC)C(=O)Cc1c(-c2ccc(Cl)cc2)nc2ccc(Cl)cn12 [Compound 3]", "ENDPOINT_RESULT": "240 % of Control"}

###

Molecular target: hGABAA α1β3γ2 (Homo sapiens, UniProt P14867+P18507+P28472)
Test: hGABAA α1β3γ2 IonFlux HT Agonist Assay
Type: cell-based
Details: read-out: Normalized Percentage Activation Mean
Source text: Ligand-gated ion channel targets were hGABAA α2β3γ2 and hGABAA α1β3γ2. Electrophysiological assays conducted to profile two compounds for agonist activities on hGABAA α2β3γ2 and seven compounds for agonist activities on hGABAA α1β3γ2 using the IonFlux HT electrophysiological platform. The parameters measured are described in the Data Analysis section. […] AM data were first exported to an Excel compatible data file and then analyzed using Graph Pad Prism software.
Listed compounds paired with reported activation at 1 µM

{"COMPOUND": "CCN(CCN(C)C)C(=O)OC1c2nccnc2C(=O)N1c1ccc(Cl)cn1 (stereo not drawn)", "activation at 1 µM (%)": 5.13}
{"COMPOUND": "CCN(CCNC)C(=O)CC1c2nccnc2C(=O)N1c1ccc(Cl)cn1 (stereo not drawn)", "activation at 1 µM (%)": 2.02}
{"COMPOUND": "CN(C)CCN(C)C(=O)CC1c2nccnc2C(=O)N1c1ccc(Cl)cn1 (stereo not drawn)", "activation at 1 µM (%)": 2.06}
{"COMPOUND": "CCCN(CCNC)C(=O)Cc1c(-c2ccc(Cl)cc2)nc2ccc(Cl)cn12", "activation at 1 µM (%)": 1.9}
{"COMPOUND": "CNCCN(C)C(=O)Cc1c(-c2ccc(C)cc2)nc2ccc(C)cn12", "activation at 1 µM (%)": 1.39}
{"COMPOUND": "CCCN(CCNC)C(=O)Cc1c(-c2ccc(C)cc2)nc2ccc(C)cn12", "activation at 1 µM (%)": 1.99}

###

Target: hGABAA α1β3γ2 (Homo sapiens, UniProt P14867+P18507+P28472)
Experiment: hGABAA α1β3γ2 IonFlux HT Agonist Assay
Format: cell-based
Settings: read-out: Normalized Percentage Activation Mean
The following compounds are listed with their measured activation at 30 µM values.

{"COMPOUND": "CN(C)CCN(C)C(=O)CC1c2nccnc2C(=O)N1c1ccc(Cl)cn1 (stereo not drawn) [Compound 6]", "activation at 30 µM (%)": 1.74}
{"COMPOUND": "CCN(CCNC)C(=O)CC1c2nccnc2C(=O)N1c1ccc(Cl)cn1 (stereo not drawn) [Compound 5]", "activation at 30 µM (%)": 3.08}
{"COMPOUND": "CCN(CCN(C)C)C(=O)OC1c2nccnc2C(=O)N1c1ccc(Cl)cn1 (stereo not drawn) [Compound 4]", "activation at 30 µM (%)": 6.45}
{"COMPOUND": "CCCN(CCNC)C(=O)Cc1c(-c2ccc(Cl)cc2)nc2ccc(Cl)cn12 [Compound 3]", "activation at 30 µM (%)": 2.98}
{"COMPOUND": "CNCCN(C)C(=O)Cc1c(-c2ccc(C)cc2)nc2ccc(C)cn12 [Compound 1]", "activation at 30 µM (%)": 4.78}
{"COMPOUND": "CCCN(CCNC)C(=O)Cc1c(-c2ccc(C)cc2)nc2ccc(C)cn12 [Compound 2]", "activation at 30 µM (%)": 5.93}
